# study-system: Beta-3 adrenergic receptor (Homo sapiens)
# Sequence (P13945 whole entry): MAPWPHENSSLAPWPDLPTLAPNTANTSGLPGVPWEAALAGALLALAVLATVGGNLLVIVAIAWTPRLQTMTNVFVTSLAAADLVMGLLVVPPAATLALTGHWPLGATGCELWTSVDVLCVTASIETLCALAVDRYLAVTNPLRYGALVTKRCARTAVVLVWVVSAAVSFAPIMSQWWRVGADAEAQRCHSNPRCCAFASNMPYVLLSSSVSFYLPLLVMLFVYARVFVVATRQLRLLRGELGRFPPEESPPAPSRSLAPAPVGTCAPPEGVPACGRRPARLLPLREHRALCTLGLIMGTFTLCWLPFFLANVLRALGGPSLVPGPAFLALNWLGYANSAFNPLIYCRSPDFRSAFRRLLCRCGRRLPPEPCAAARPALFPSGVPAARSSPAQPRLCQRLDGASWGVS
# assay-info: Agonist activity towards Beta-3 adrenergic receptor
pEC50: −log10 of the molar value.
property-measured: pEC50

Worked cases, pEC50 given:
CCCCCCN1CCN(c2ccc(S(=O)(=O)Nc3ccc(CCNC[C@H](O)c4cccnc4)cc3)cc2)C1=O    7.74
COCCCCN1CCN(c2ccc(S(=O)(=O)Nc3ccc(CCNC[C@H](O)c4cccnc4)cc3)cc2)C1=O    7.17
CN1CCN(c2ccc(S(=O)(=O)Nc3ccc(CCNC[C@H](O)c4cccnc4)cc3)cc2)C1=O    7.07
O=C1N(CCCc2ccc(Cl)cc2)CCN1c1ccc(S(=O)(=O)Nc2ccc(CCNC[C@H](O)c3cccnc3)cc2)cc1    8.36
O=C1N(CCCC(F)(F)C(F)(F)F)CCN1c1ccc(S(=O)(=O)Nc2ccc(CCNC[C@H](O)c3cccnc3)cc2)cc1    7.85

[I] CCCCN1CCN(c2ccc(S(=O)(=O)Nc3ccc(CCNC[C@H](O)c4cccnc4)cc3)cc2)C1=O
[II] CCCCCN1CCN(c2ccc(S(=O)(=O)Nc3ccc(CCNC[C@H](O)c4cccnc4)cc3)cc2)C1=O
Could you please tell me which of these two has the higher pEC50: I or II ? Kindly state the label of the option you pick.
II
(II: 7.68, I: 7.43)

[A] CCCCCCCN1CCN(c2ccc(S(=O)(=O)Nc3ccc(CCNC[C@H](O)c4cccnc4)cc3)cc2)C1=O
[B] O=C1N(CCCC2CCCCC2)CCN1c1ccc(S(=O)(=O)Nc2ccc(CCNC[C@H](O)c3cccnc3)cc2)cc1
Between A and B , which one has the lower reported pEC50 value? Returns: label corresponding to the selected item.
A
(A: 7.70, B: 8.60)

[I] CCCCC(C)(C)CN1CCN(c2ccc(S(=O)(=O)Nc3ccc(CCNC[C@H](O)c4cccnc4)cc3)cc2)C1=O
[II] CCCCCCn1ccn(-c2ccc(S(=O)(=O)Nc3ccc(CCNC[C@H](O)c4cccnc4)cc3)cc2)c1=O [L-764646]
Returns: the argument ( I or II ) having the larger pEC50. Please respond with the label that marks your chosen entry.
I

[a] O=C1N(CCC2CCCCC2)CCN1c1ccc(S(=O)(=O)Nc2ccc(CCNC[C@H](O)c3cccnc3)cc2)cc1
[b] O=C1N(Cc2ccc(F)c(F)c2)CCN1c1ccc(S(=O)(=O)Nc2ccc(CCNC[C@H](O)c3cccnc3)cc2)cc1
[c] O=C(CCN1CCN(c2ccc(S(=O)(=O)Nc3ccc(CCNC[C@H](O)c4cccnc4)cc3)cc2)C1=O)N1CCCC1
[d] O=c1n(CCCC(F)(F)F)ccn1-c1ccc(S(=O)(=O)Nc2ccc(CCNC[C@H](O)c3cccnc3)cc2)cc1
[e] O=c1n(Cc2ccc(F)c(F)c2)ccn1-c1ccc(S(=O)(=O)Nc2ccc(CCNC[C@H](O)c3cccnc3)cc2)cc1
Highest pEC50 first, then in falling order down to the smallest. Would you mind listing the labels in the order asked for?
e, a, b, d, c
(e: 8.59, a: 8.24, b: 8.02, d: 7.60, c: 6.89)

====

# study-system: UniProt:P08588
# Sequence (P08588 whole entry): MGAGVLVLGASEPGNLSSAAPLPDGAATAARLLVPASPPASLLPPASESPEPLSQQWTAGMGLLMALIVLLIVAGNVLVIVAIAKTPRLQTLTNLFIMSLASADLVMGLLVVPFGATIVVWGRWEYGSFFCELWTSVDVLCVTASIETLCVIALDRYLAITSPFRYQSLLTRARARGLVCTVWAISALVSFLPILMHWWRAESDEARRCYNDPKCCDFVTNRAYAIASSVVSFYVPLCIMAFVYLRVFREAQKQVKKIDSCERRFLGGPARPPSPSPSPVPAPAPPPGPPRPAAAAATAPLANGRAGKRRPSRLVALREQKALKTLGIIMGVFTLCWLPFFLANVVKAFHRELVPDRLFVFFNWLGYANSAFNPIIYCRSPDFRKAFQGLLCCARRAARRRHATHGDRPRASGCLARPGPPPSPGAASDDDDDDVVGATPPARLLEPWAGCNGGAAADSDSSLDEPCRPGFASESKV
# assay-info: Binding affinity towards human Beta-1 adrenergic receptor expressed in CHO cells, using 125I]iodocyanopindolol
property-measured: IC50 (µM)

Example entries and their recorded answers appear below.
CCCCN1CCN(c2ccc(S(=O)(=O)Nc3ccc(CCNC[C@H](O)c4cccnc4)cc3)cc2)C1=O    10
O=C1N(Cc2ccc(F)c(F)c2)CCN1c1ccc(S(=O)(=O)Nc2ccc(CCNC[C@H](O)c3cccnc3)cc2)cc1    5
CCCCCCCCN1CCN(c2ccc(S(=O)(=O)Nc3ccc(CCNC[C@H](O)c4cccnc4)cc3)cc2)C1=O    0.58
O=C1N(CCCC2CCCCC2)CCN1c1ccc(S(=O)(=O)Nc2ccc(CCNC[C@H](O)c3cccnc3)cc2)cc1    1
O=C1N(CCCc2ccccc2)CCN1c1ccc(S(=O)(=O)Nc2ccc(CCNC[C@H](O)c3cccnc3)cc2)cc1    4
O=C1N(CCCc2ccc(Cl)cc2)CCN1c1ccc(S(=O)(=O)Nc2ccc(CCNC[C@H](O)c3cccnc3)cc2)cc1    2

[A] O=c1n(Cc2ccc(F)c(F)c2)ccn1-c1ccc(S(=O)(=O)Nc2ccc(CCNC[C@H](O)c3cccnc3)cc2)cc1
[B] O=C1N(CCC2CCCC2)CCN1c1ccc(S(=O)(=O)Nc2ccc(CCNC[C@H](O)c3cccnc3)cc2)cc1
Hey, which is lower on measured IC50, A or B ? // respond with label for picked entry
B
